Reported IC50 is given for each of the following compounds.
- tgt: KDM5A (Homo sapiens, UniProt P29375)
- Construct: Full length recombinant Flag tagged KDM5A protein was purified from Sf9 insect cells; Flag; made in house; host or cells: Sf9 insect cells
- Sequence (P29375 whole entry): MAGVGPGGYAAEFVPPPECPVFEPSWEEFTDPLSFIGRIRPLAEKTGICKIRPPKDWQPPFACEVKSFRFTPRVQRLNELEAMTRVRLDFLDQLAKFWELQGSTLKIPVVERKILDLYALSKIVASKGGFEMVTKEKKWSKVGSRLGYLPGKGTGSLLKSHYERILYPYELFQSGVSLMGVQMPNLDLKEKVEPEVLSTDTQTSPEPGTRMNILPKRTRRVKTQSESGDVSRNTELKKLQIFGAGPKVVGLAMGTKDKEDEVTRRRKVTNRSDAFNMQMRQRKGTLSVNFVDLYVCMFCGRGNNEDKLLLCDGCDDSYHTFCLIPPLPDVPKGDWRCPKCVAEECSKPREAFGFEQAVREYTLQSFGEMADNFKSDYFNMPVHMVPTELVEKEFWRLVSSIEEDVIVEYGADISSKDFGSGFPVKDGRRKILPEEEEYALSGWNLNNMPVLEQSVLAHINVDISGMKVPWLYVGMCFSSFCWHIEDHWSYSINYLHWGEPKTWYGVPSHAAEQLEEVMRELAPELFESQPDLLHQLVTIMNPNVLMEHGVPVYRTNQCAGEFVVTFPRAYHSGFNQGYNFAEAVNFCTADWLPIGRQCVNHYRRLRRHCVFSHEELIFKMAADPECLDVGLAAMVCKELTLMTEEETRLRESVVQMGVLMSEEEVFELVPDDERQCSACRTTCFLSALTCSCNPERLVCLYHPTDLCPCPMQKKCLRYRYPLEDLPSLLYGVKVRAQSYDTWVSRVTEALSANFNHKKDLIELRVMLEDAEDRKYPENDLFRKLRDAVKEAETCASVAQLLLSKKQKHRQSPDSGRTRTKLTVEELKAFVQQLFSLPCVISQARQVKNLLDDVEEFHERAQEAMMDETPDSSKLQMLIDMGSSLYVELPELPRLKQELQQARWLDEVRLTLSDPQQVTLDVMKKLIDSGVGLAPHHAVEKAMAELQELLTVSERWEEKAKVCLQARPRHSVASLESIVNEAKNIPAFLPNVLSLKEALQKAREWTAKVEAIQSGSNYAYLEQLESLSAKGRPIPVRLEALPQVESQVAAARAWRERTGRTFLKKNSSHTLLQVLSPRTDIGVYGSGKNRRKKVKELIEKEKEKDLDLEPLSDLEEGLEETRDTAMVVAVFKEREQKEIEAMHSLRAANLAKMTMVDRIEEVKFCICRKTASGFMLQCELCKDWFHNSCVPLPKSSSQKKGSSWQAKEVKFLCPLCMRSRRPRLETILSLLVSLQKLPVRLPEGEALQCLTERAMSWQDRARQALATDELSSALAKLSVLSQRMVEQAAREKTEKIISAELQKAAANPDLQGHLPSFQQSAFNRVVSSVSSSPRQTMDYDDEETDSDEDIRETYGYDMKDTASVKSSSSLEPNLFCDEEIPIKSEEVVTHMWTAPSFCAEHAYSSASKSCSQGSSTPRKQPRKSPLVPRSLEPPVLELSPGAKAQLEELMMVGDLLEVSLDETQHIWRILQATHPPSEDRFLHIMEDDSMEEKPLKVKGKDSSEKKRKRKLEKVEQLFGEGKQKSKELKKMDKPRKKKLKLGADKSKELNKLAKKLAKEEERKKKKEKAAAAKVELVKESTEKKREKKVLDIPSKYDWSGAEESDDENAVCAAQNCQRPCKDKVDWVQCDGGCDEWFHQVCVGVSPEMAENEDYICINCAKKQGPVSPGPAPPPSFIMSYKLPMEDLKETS
- methodDescription: KDM5A Demethylase Assay (MassSpec Assay-A)
- Format: biochemical
- runConditions: full length recombinant Flag tagged KDM5A, 20 nM; MassSpec readout; biotinylated H3K9me1 peptide 4.0 μM; read-out: A KDM5A MS (IC50)
Write the answer as a number in µM, unit excluded.

Below, each entry is followed by its recorded IC50 result.
compoundString: Cc1[nH]c2c(-n3cnc(-c4ccccn4)c3)cnn2c(=O)c1C
IC50 (µM): 0.0537
//
compoundString: CCc1c(C)[nH]c2c(-c3nc(-c4ccccn4)no3)cnn2c1=O
IC50 (µM): 0.518

Could you share which IC50 value was measured for "CCc1c(C)[nH]c2c(-n3cnc(-c4ncccn4)c3)cnn2c1=O" ?
0.538

Subsequent entry: "Cc1c(-c2ccccc2)[nH]c2c(-n3cnc(-c4ccccn4)c3)cnn2c1=O"
0.47

Subsequent entry: "CCc1c(C)[nH]c2c(-c3nc(C(N)=O)no3)cnn2c1=O"
0.332

Subsequent entry: "CCc1c(C)[nH]c2c(-n3cnc(C(=O)N(C)C)c3)cnn2c1=O"
0.178

Subsequent entry: "CCc1c(C)[nH]c2c(-c3cnn(-c4nccc(C)n4)c3)cnn2c1=O"
0.0263

Subsequent entry: "CCc1c(C)[nH]c2c(-n3cnc4ccccc43)cnn2c1=O"
80

Subsequent entry: "CCc1c(C)[nH]c2c(-n3cnc(-c4cccnc4)c3)cnn2c1=O"
6.32

Subsequent entry: "CCc1[nH]c2c(-n3cnc(-c4ccccn4)c3)cnn2c(=O)c1CC"
0.0708

Subsequent entry: "CCc1c(C)[nH]c2c(-n3cncc3I)cnn2c1=O"
3.05

Subsequent entry: "CCc1c(C)[nH]c2c(-n3cnc(-c4cscn4)c3)cnn2c1=O"
0.453

Subsequent entry: "CCc1c(C)[nH]c2c(-c3nnc(-c4ccccn4)o3)cnn2c1=O"
0.268

Subsequent entry: "CCc1c(C)[nH]c2c(-c3cnn(-c4cccc(OC)n4)c3)cnn2c1=O"
3.73

Subsequent entry: "CCc1c(C)[nH]c2c(-c3cc(-c4ccccn4)on3)cnn2c1=O"
4

Subsequent entry: "CCc1c(C)[nH]c2c(-n3cnc(I)c3)cnn2c1=O"
29.4

Subsequent entry: "CCc1c(-c2ccccc2)[nH]c2c(-n3ccnc3)cnn2c1=O"
43.2

Subsequent entry: "CCc1c(C)[nH]c2c(-c3cnn(-c4cccnn4)c3)cnn2c1=O"
0.233

Subsequent entry: "CCc1c(C)[nH]c2c(-c3cnn(-c4cc5ccccc5cn4)c3)cnn2c1=O"
0.0369

Subsequent entry: "CCc1c(C)[nH]c2c(-n3cnc(C(=O)NC)c3)cnn2c1=O"
0.996
